- Test system: HT29 colon
- Experiment Notes: NCI tumour cell line growth inhibition, 48 h
Readout Name: TGI

In [3]: df
Out[3]:
                                   molecule  experimental_value
0  COc1ccc(C2C(Cl)C(=O)N2NC(=O)c2ccc(N)cc2)cc1 (stereo not given)            > 100 µM
1  Nc1nc2c(c3ncccc13)C(c1cccc(Br)c1)Cc1ncccc1-2 (stereo not given)             11.4 µM
2      COc1cc2c(cc1O)NC(=S)[C@@H]1CCCN1C2=O            > 100 µM
3  [Cl-].[Cl-].[Cl-].[O-]c1cccc2cccnc12.[O-]c1cccc2cccnc12.[O]=[Mo]             11.5 µM
4  COc1ccc2[nH]c(-c3ccccc3)c(/C=C(\C#N)S(=O)(=O)c3ccccc3)c2c1            > 100 µM

---

# maps each entry to its GI50
- Tested on: HCT-15 colon
- Experiment Notes: NCI tumour cell line growth inhibition, 48 h
Readout Name: GI50

>>> print(df.to_string())
                                   compound  readout_name  experimental_value
0  CC(=O)O[C@H]1CCC2(C)C(=CCC3C2CCC2(C)/C(=N/OC(=O)c4ccc(N(CCCl)CCCl)cc4)CCC32)C1 (stereo not given in full)          GI50             8.87 µM
1           COc1cc(NCCCCCN=C(N)N)c2ncccc2c1          GI50             43.9 µM
2  COc1ccc2[nH]c(-c3ccccc3)c(/C=C(\C#N)S(=O)(=O)c3ccccc3)c2c1          GI50             4.02 µM
3  CN1CCN(CCCOc2ccc3nc(Nc4cc(Cl)cc(Cl)c4)ccc3c2)CC1          GI50            0.677 µM
4  C[C@@H]1C[N+]2([O-])[C@H]3C4=CCC[C@@H]4CC[C@H]3[C@@]3(C)OC(=O)CC[C@]34CC[C@H]1[C@@H]42 (stereo not given in full)          GI50             > 60 µM
5              O=C1C=CC(=O)N1C1CCCCCCCCCCC1          GI50             3.72 µM
6                        O=P(O)(NCCCl)NCCCl          GI50            > 100 µM
7  Nc1nc2c(c3ncccc13)C(c1cccc(Br)c1)Cc1ncccc1-2 (stereo not given)          GI50            0.504 µM
8             C(#Cc1cnccn1)/C=C\C#Cc1cnccn1          GI50             2.74 µM
9  ClCc1ccc(-c2ccc(Cn3cnc4nc(Cl)nc(Cl)c43)cc2)cc1          GI50              3.9 µM

---

- Test system: M14 melanoma
- Experiment Notes: NCI tumour cell line growth inhibition, 48 h
List of TGI values.

Molecule	TGI
COc1ccc2cc1Oc1ccc(cc1)CC1c3cc4c(cc3CCN1C)Oc1c(OC)cc3c(c1O4)C(C2)N(C)CC3 (stereo not given)	3 µM
S=C(S)N1CCN(c2cccc(Cl)c2)CC1	> 100 µM
O=C(c1cc(Cl)ccc1Cl)N1CCN(c2cccc(Cl)c2)CC1	> 100 µM
Cc1cc(O)c(C(=O)O)c2c1C(=O)c1c(O)c(OCC(O)C(O)C(O)C(O)CO)c(O)c(O)c1C2=O (stereo not given) (tested in a mixture with another compound)	> 100 µM
O=C(O)c1cc(C(=O)O)nc(C(=O)O)c1	> 100 µM
CCCc1onc(CCC(=O)N(Cc2ccccc2)Cc2ccccc2)c1CC	> 100 µM
COc1cc(C2SC(N)=Nc3c2c(C)nn3C(=O)c2ccc(Cl)cc2)cc(OC)c1OC (stereo not given)	> 10 µM
Cc1ccc([N+](=O)[O-])cc1S(=O)(=O)Nc1ccc(C(=O)/C=C/c2cccs2)cc1	45.3 µM
Nc1nc2c(c3ncccc13)C(c1cccc(Br)c1)Cc1ncccc1-2 (stereo not given)	12.6 µM
CC(=O)[CH-]C(C)=O.CC(=O)[CH-]C(C)=O.CC(=O)[CH-]C(C)=O.[In+3]	> 100 µM

---

- System: COLO 205 colon
- Experiment Notes: NCI tumour cell line growth inhibition, 48 h
// reported TGI per item
Readout Name: TGI

>>> print(df.to_string())
                                   compound  readout_name  experimental_value
0  CC(C)(C)C1CCC2c3c([nH]c4ccccc34)C3C(=O)N(c4cccc([N+](=O)[O-])c4)C(=O)C3C2C1 (stereo not given)           TGI             73.6 µM
1  O=C(COc1ccc(/C=C/C(=O)c2ccc(Cl)cc2)cc1)Nc1c(Cl)cccc1Cl           TGI            > 100 µM
2  COP(=O)(OC)/C(=C/c1c[nH]c2ccccc12)C(=O)O           TGI            > 100 µM
3  O=C1CCCCCCCCCCC(=O)N2CCOCCOCCN1Cc1cccc(n1)C2           TGI            > 100 µM
4  CN(Cc1cnc2c(n1)C(N)=NN(N)N2)c1ccc(C(=O)NC(CCP(=O)(O)O)C(=O)O)cc1 (stereo not given)           TGI            > 100 µM
5  COc1cc2ncn(-c3cc(O[C@H](C)c4ccccc4Cl)c(C(N)=O)s3)c2cc1OC           TGI             4.58 µM
6  COc1cc(S(=O)(=O)Nc2nc(-c3ccc(N=Cc4cccs4)cc3)cs2)ccc1Cl           TGI            > 100 µM
7     O=C1c2ccccc2-c2nnc(-c3ccc(Br)cc3)cc21           TGI            > 100 µM
8  Cc1cc2ncn(C3CCCO3)c2cc1C (stereo not given)           TGI            > 100 µM
9  Cc1nn(C2OC(CO)C(O)C(F)C2O)c(=O)[nH]c1=O (stereo not given)           TGI            > 100 µM

---

Each record here notes measured TGI.
- Tested on: NCI-H522 lung
- Experiment Notes: NCI tumour cell line growth inhibition, 48 h
*1 amine or outer side, *2 acyl side, *3 side chain or, on linkers, in order; H or OH if unused. Where a SMILES comes first, the peptide text is derived from it. Bridges are numbered along the chain shown (N, C = ends). [ ]: non-standard residue; d: D form. Adda = CO[C@@H](Cc1ccccc1)[C@@H](C)/C=C(C)/C=C/[C@H](N[*:1])[C@H](C)C(=O)[*:2]; dAsp(3S-Me) = C[C@H](C(=O)[*:3])[C@@H](N[*:1])C(=O)[*:2]; d(γGlu) = O=C(O)[C@@H](CCC(=O)[*:2])N[*:1]; NMeDha = C=C(NC)C(=O)O

Compound	TGI
O=C1C=CC(=O)N1C1CCCCCCCCCCC1	3.37 µM
CN1CCc2c(c3ccccc3c3ccccc23)C1	8.49 µM
O=C(CC1C(=O)Nc2ccccc2S1=O)Nc1ccccc1 (configuration not stated)	> 100 µM
Cc1cc(C)c(S(=O)(=O)N2CCN(S(=O)(=O)c3c(C)cc(C)cc3C)OCCCCCO2)c(C)c1	> 100 µM
O=[N+]([O-])c1ccc2c(c1)Sc1ccccc1N2CCCCCl	> 100 µM
Cc1cc2[nH]c(Cl)c(/C=C3\C(=O)Nc4ccccc43)c2cc1O	4.66 µM
O=S(=O)(Nc1ccccc1)c1ccc(-c2c3nc(c(-c4ccc(S(=O)(=O)Nc5ccccc5)cc4)c4ccc([nH]4)c(-c4ccc(S(=O)(=O)Nc5ccccc5)cc4)c4nc(c(-c5ccc(S(=O)(=O)Nc6ccccc6)cc5)c5ccc2[nH]5)C=C4)C=C3)cc1	> 31.6 µM
C=CC1(CC)/C(=N\O)C(CC)(CC)C(=O)N1O (configuration not stated)	> 100 µM
CN1C(=O)CC2CCCN2C1=O (configuration not stated)	> 100 µM
C=C1C(=O)N[C@H](C)C(=O)N[C@@H](CC(C)C)C(=O)N[C@@H](C(=O)O)[C@H](C)C(=O)N[C@@H](CCCN=C(N)N)C(=O)N[C@@H](/C=C/C(C)=C/[C@H](C)[C@H](Cc2ccccc2)OC)[C@H](C)C(=O)N[C@@H](C(=O)O)CCC(=O)N1C (R[Adda][d(γGlu)][NMeDha][dA]L[dAsp(3S-Me)]-OH; lactam N-7)	> 5 µM
O=S(=O)(O)SC/C=C\CSS(=O)(=O)O	> 100 µM
COc1ccc(C(=O)c2cc(OC)c3c(c2)OCO3)cc1O	0.105 µM
